system: T-47D Tam1; experiment: viability inhibition at highest dose (% inhibition); higher = more growth inhibition; settings: 4-OH-tamoxifen in medium 1 µM; 72 h
viability inhibition at highest dose vs 20: less than gives yes; not less than gives no.

# count of solved cases: 5
INSERT INTO results (compound, system, discrete_label) VALUES
  ('CCNC(=O)c1noc(-c2cc(C(C)C)c(O)cc2O)c1-c1ccc(CN2CCOCC2)cc1 [NVP-AUY922] (drug 1000 nM)', 'T-47D Tam1', 'no'),
  ('Nc1ncn([C@@H]2O[C@H](CO)[C@@H](O)[C@H]2O)c(=O)n1 [Azacitidine] (drug 10000 nM)', 'T-47D Tam1', 'no'),
  ('CN1CCc2c(c3ccccc3n2Cc2ccc(C(=O)NO)cc2)C1 [Tubastatin A] (drug 10000 nM)', 'T-47D Tam1', 'yes'),
  ('CNC(=O)c1cc(Oc2ccc(NC(=O)Nc3ccc(Cl)c(C(F)(F)F)c3)cc2)ccn1 [Sorafenib] (drug 1000 nM)', 'T-47D Tam1', 'yes'),
  ('CNC(=O)c1ccccc1Sc1ccc2c(/C=C/c3ccccn3)n[nH]c2c1 [Axitinib] (drug 10000 nM)', 'T-47D Tam1', 'no');

# TODO verify viability inhibition at highest dose < 20 strictly for this compound: C[C@@H](Oc1cc(-c2cnn(C3CCNCC3)c2)cnc1N)c1c(Cl)ccc(F)c1Cl [Crizotinib] (drug 1000 nM)
yes

Item COc1c(C)cnc(Cn2cnc3c(Cl)nc(N)nc32)c1C [BIIB021] (drug 10000 nM) : viability inhibition at highest dose beneath 20, strictly?
no

Record CN(C)CCN1C(=O)c2cccc3cc(N)cc(c23)C1=O [Amonafide] (drug 10000 nM) : is its viability inhibition at highest dose strictly below 20?
yes
